B1: ADD1 (parent)
chain: LRHSFQKQQREKTRWLNSGRGDEA

# Variants of: B1
# Run Description: protein stability index of a GFP-peptide fusion (GPS, HEK-293T) (PSI 1-6); higher = more stable;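 note: lentivirally expressed fusions sorted by FACS into six bins by GFP to DsRed ratio, PSI derived from sequencing read proportions per bin multiplied by bin number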
# Condition Details: c terminus: a fixed tail appended
Quantity Kind: protein stability index
I'd appreciate a reply containing only the number, no unit.

Examples with their reported protein stability index follow.
In [3]: df
Out[3]:
   sequence_change  observed_value
0             G21A               4
1             T13Q             3.2
2             R20C            3.91

In: Tell me protein stability index reported for Q6S
Out: 3.18
